assay protocol: Partition coefficient between layers of a two-phase solvent system (HPLC peak area)
Format: physicochemical
assay context: Hexane-EtOAc—MeOH—H2O 12.24.16.9, from peak areas of lower and upper layer
Readings of partition coefficient for the listed molecules
Respond using a number only.

{"molecule": "CC(C)(O)/C=C/C(=O)[C@](C)(O)C1[C@H](O)C[C@@]2(C)C3CC=C4C(C=C(O[C@@H]5OC(CO)[C@@H](O)C(O)C5O)C(=O)C4(C)C)[C@]3(C)C(=O)C[C@]12C (stereo partly shown) [cucurbitacin I glucoside]", "result number": 0.03}
{"molecule": "CC(C)(O)/C=C/C(=O)[C@](C)(O)C1[C@H](O)C[C@@]2(C)C3CC=C4C(C=C(O)C(=O)C4(C)C)[C@]3(C)C(=O)C[C@]12C (stereo partly shown) [Cucurbitacin I, cucurbitacin I]", "result number": 0.42}

Problem: Input CC(=O)OC(C)(C)/C=C/C(=O)[C@](C)(O)C1[C@H](O)C[C@@]2(C)C3CC=C4C(C=C(O[C@@H]5OC(CO)[C@@H](O)C(O)C5O)C(=O)C4(C)C)[C@]3(C)C(=O)C[C@]12C (stereo partly shown) [cucurbitacin E glucoside] , output reported partition coefficient.
Result: 0.05

Problem: Input CC(=O)OC(C)(C)/C=C/C(=O)[C@](C)(O)C1[C@H](O)C[C@@]2(C)C3CC=C4C(C=C(O)C(=O)C4(C)C)[C@]3(C)C(=O)C[C@]12C (stereo partly shown) [Cucurbitacin E, cucurbitacin E] , output reported partition coefficient.
Result: 0.90
